All values here come from patent US20220389008A1.

// values below are reported pIC50
# System: rNaCh
# assay overview: CVS / cardio tox rNaCh
# Assay type: binding, rat
# assay conditions: read-out: Cardio tox rNaCH (IC50)
Friendly reminder that pIC50 comes from taking -log10 of the concentration in mol/L.

Consider the reported pIC50 for these molecules:
>  <molecule>
Cc1c(-c2cn3ccc(Cc4ccc(OC(F)(F)F)cc4)cc3n2)[nH]c2ccccc2c1=O [Compound 52]

>  <study system>
rNaCh

>  <pIC50>
5.13

$$$$
>  <molecule>
Cc1c(-c2nc3ccc(-c4nc(C(F)(F)F)cs4)cn3n2)[nH]c2ccccc2c1=O [Compound 18]

>  <study system>
rNaCh

>  <pIC50>
5.82

$$$$
>  <molecule>
Cc1c(-c2cc3ccc(-c4ccc(OC(F)(F)F)cc4)cn3c2)[nH]c2ccccc2c1=O [Compound 22]

>  <study system>
rNaCh

>  <pIC50>
5.16

$$$$
>  <molecule>
Cc1c(-c2nc3ccc(-c4ccc(C(F)(F)F)cc4)cn3n2)[nH]c2ccccc2c1=O [Compound 4]

>  <study system>
rNaCh

>  <pIC50>
5.64

$$$$
>  <molecule>
Cc1c(-c2cn3cc(Oc4ccc(OC(F)(F)F)cc4)ccc3n2)[nH]c2ccccc2c1=O [Compound 44]

>  <study system>
rNaCh

>  <pIC50>
5.92

$$$$
>  <molecule>
Cc1c(-c2cn3cc(Cc4ccc(OC(F)(F)F)cc4)ccc3n2)[nH]c2ccccc2c1=O [Compound 63]

>  <study system>
rNaCh

>  <pIC50>
5.55

$$$$

Now for the molecule whose pIC50 we want.
Exercise: Look up pIC50 for this molecule: Cc1c(-c2cn3ccc(Oc4ccc(OC(F)(F)F)cc4)cc3n2)[nH]c2ccccc2c1=O [Compound 29]
Key: 5.64
